# System: Saccharomyces cerevisiae;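 note: PSI is a weighted mean of sequencing reads over stability bins, variants kept only with over 10 reads, mCherry proximal and sfGFP distal, peptide attached via GGGS linker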
# procedure-summary: protein stability index of tFT-peptide fusion (C-terminal peptide) (PSI (0-1 scale)); higher = more stable (slower turnover)
# stated-conditions: genetic background: cdc34-1; temperature: 37 C
result-type: protein stability index
# print the numeric value only

Use these answered entries as a reference point.
sequence_input=LVVAVLKIIMSS target_under_test="Saccharomyces cerevisiae" result_type="protein stability index" endpoint_result=0.13
sequence_input=FWFLWAKMLLSC target_under_test="Saccharomyces cerevisiae" result_type="protein stability index" endpoint_result=0.253
sequence_input=LWLVSLLVLWLT target_under_test="Saccharomyces cerevisiae" result_type="protein stability index" endpoint_result=0.332
sequence_input=CWSSVGLSVCGC target_under_test="Saccharomyces cerevisiae" result_type="protein stability index" endpoint_result=0.676
sequence_input=IERLRLRTRIIC target_under_test="Saccharomyces cerevisiae" result_type="protein stability index" endpoint_result=0.469
sequence_input=CFATTCLRCKWV target_under_test="Saccharomyces cerevisiae" result_type="protein stability index" endpoint_result=0.692

Tell us which protein stability index value is on record for `FCTSSRLLYCSA`
0.177

Report protein stability index for `CRLFFVFVFFWW`
0.22

Return value of protein stability index for input `PPLTRVPLSISA` , no commentary.
0.434

Could you please provide reported protein stability index for `FPPHFLPLVFLS` ? Thanks!
0.436

Answer with the recorded protein stability index for the sequence listed here: `FFCLVEVFVGVF`
0.0707
